# EXPERIMENTAL_SYSTEM: Hck (UniProt P08631)
# Sequence (P08631 whole entry, looked up): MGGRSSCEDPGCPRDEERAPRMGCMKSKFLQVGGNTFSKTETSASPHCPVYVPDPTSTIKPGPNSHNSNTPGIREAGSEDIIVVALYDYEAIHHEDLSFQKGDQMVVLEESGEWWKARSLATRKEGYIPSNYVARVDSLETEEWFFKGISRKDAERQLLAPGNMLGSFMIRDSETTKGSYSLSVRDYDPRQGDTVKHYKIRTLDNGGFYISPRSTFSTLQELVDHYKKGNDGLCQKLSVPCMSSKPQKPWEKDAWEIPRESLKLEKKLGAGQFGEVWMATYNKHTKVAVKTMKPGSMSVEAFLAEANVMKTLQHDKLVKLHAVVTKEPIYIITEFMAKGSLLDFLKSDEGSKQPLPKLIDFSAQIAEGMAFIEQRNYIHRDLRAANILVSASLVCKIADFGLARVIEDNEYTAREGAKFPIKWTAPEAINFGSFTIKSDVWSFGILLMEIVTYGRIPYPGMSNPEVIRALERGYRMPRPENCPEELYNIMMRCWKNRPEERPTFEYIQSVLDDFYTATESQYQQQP
# ASSAY_PROTOCOL: phosphorylation enrichment, bacterial display (enrichment ratio); higher = better substrate or ligand; peptides without Tyr show the background;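 also: 11-residue human phosphosite peptides and single-mutation variants displayed on the E. coli surface, counted by deep sequencing, each peptide's frequency after selection divided by its frequency in the unselected input library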;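 also: frequency after pTyr selection over input frequency; kinase dosed for 20-30% of maximal phosphorylation in three min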
Below, each entry is listed with its recorded phosphorylation enrichment.

| SEQUENCE_ENTRY | phosphorylation enrichment |
| --- | --- |
| ADRTRYSAFGG [RBM4_Y361_A359T] | 0.37 |
| PMFHSYVSLPF [PLXNA2_Y293_K289M] | 3.34 |
| HHIDFYKETTN [FGFR1_Y654_K656E_YF] | 1.64 |
| IFGEEYEEQPR [ZMYM2_Y1033_V1028I] | 0.608 |
| TSQSQYSSFRE [CCDC170_Y323_F324S] | 1.14 |
| TKDTFYKQPMV [GBA_Y451_F456V] | 0.348 |
| SSWPGYVRPLP [HSPB1_Y54] | 0.485 |
| GIVKAYYVRAR [AIPL1_Y267] | 0.396 |
| TLLAFYMGNFS [GLB1_Y552_P549L] | 0.62 |
| LDAGEYCVPRG [BEX1_Y43] | 1.57 |
| EEQKRYFNAMK [SCN5A_Y1494_K1493R_YF] | 0.451 |
| HNQDDYSFPSR [LDLR_Y845_G844D_YF] | 0.586 |
| SQETFYRVSNM [ABCD1_Y181_Q178E_YF] | 0.457 |
| HPFHVYPQPGM [BAG3_Y114] | 0.684 |
| NKEAIYSGFIR [SMCHD1_Y283_YF] | 13.1 |
| NVFGNYNQQPS [HNRNPA2B1_Y306_D302V] | 0.484 |
| VPVNGYQPVPA [ROR2_Y824] | 0.422 |
| EMQAAYQKVVA [HBD_Y131_Q126E] | 0.535 |
| QMQAAYQKAVA [HBD_Y131_V134A] | 0.449 |
| QYNIQYSSSAA [ERBB2IP_Y981] | 0.47 |
| GDYLSYREFHS [ERBIN_Y1107] | 2.42 |
| ADKSAYLMGLN [MYH7_Y386] | 0.524 |
| DDSSAYRSVDE [BCKDHA_Y345] | 0.553 |
| SVTCTDSPALN [TP53_Y126_Y126D] | 0.474 |
| SVQIVYKPVDL [MAPT_Y627] | 0.455 |
| EQKRFYNAMKK [SCN5A_Y1495_K1493R_YF] | 0.342 |
| GIVEDYRPPFF [ACVRL1_Y421_YF] | 0.413 |
| KLKRSYCSPDI [USP8_Y717_S718C] | 0.393 |
| YSSLGYPLPEG [ZSWIM4_Y87_P89L] | 2.05 |
| KDYETYQSFQN [CTNND2_Y1157_P1159S] | 5.74 |
| QMVRMYASSFM [AVPR2_Y124_G122R_YF] | 0.425 |
| IMVFVYCRVFQ [ADRB2_Y219_S220C] | 0.473 |
| VDTAMYATMQR [TPO_Y55] | 5.09 |

The reported numbers originate from the supplement of paper PMC10065799.
